The values you see were collected from patent US20190315842A1.

Items are presented alongside their recorded AtheNA signal.
Target Entity: ribonucleoprotein (RNP)
Procedure Summary: AtheNA Multi-Lyte ANA, Ab at 50 ug/ml;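 note: monoclonal antibodies probed against a nuclear autoantigen panel (SSA, SSB, Sm, RNP, Scl-70, Jo-1, dsDNA, CentB, histones), with anti-HIV 4E10 and palivizumab as control antibodies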
Format: numeric value only, no unit, no commentary.

Known AtheNA signal results, listed for orientation:
Item: Ab7968 (antibody, IgG1, V domains shown, Recombinant human antibody with IgG1 heavy chain backbone and kappa light chain constant; they begin at LVESGGG and MTQSP; also called mAb 7968; mAb7968) VH: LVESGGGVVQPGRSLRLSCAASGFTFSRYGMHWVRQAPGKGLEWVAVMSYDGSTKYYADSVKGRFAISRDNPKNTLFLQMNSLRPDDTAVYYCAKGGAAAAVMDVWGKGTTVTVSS VL: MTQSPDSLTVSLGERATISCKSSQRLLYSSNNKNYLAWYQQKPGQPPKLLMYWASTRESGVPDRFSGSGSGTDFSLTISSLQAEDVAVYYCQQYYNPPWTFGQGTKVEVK | AtheNA signal: 10

Item: Ab7962/293i (antibody, V domains shown, Recombinant human antibody with IgG1 heavy chain backbone and kappa light chain constant (IgM in the donor B cell); they begin at LVESGGG and MTQSL; also called clone 27; pH007962/pK005996) VH: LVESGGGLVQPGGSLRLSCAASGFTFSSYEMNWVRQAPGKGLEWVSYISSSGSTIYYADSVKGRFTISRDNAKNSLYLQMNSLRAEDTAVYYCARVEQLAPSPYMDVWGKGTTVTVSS VL: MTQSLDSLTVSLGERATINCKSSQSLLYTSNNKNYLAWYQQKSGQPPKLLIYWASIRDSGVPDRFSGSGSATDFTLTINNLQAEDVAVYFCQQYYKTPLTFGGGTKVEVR | AtheNA signal: 5

Now for a further binder.
Item: Ab7961/293i (antibody, IgG1, V domains shown, Recombinant human antibody with IgG1 heavy chain backbone and kappa light chain constant; they begin at LVESGGG and MTQSP; also called mAb 7961; clone 24) VH: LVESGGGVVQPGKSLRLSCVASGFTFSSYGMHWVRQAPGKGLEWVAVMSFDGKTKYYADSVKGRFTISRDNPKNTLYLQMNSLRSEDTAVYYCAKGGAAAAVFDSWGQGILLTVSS VL: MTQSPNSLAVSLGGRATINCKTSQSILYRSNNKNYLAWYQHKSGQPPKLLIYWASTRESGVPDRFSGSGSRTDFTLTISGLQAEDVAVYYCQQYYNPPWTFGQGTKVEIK | AtheNA signal: 8
